B1: Azoarcus group I ribozyme (parent)
chain: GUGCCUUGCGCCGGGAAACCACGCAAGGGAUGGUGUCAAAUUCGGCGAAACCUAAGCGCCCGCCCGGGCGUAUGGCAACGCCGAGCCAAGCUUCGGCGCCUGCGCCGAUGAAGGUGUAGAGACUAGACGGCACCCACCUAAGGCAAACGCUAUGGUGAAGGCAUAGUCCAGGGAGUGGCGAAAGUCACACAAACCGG

variants of: B1; assay: reverse-splicing fitness (ratio to wild type); higher = more active; in vitro selection; Mg2+ level not given
Reported reverse-splicing fitness maps to class as: bottom bin = under 0.006, middle bin = from 0.006 up to 0.02, top bin = 0.02 and over

> print(dat)
                         mutation.annotation  label.value
 1              C82U A111G A120G A145C C150G   middle bin
 2  C82A A111U A120C A145U C150U C169G U176G   middle bin
 3              C82U A111G A120G C150U U176G   bottom bin
 4              C82G A111G A120U C169G U176G   bottom bin
 5        C82G A111G A120U A145C C150G C169U   bottom bin
 6              C82U A111C A120C C150G C169G   middle bin
 7        C82U A111U A120U A145G C150U U176C   middle bin
 8        C82G A120G A145U C150A C169A U176G   bottom bin
 9                    C82G A145C C150G U176G   middle bin
10        C82G A111C A145G C150U C169A U176G   middle bin
11                   A111U A120C A145U C150U      top bin
12              C82G A111G C150G C169A U176G   middle bin
13  C82G A111G A120U A145G C150A C169U U176G   bottom bin
14        C82U A111U A120G A145G C150G U176C   middle bin
15        C82A A111C A120U A145U C150A C169A   bottom bin
16        C82U A111C A120C A145C C150G C169U   middle bin
17                    C82G A111C C150A C169G   middle bin
18        C82A A111U A120C C150A C169G U176C      top bin
19              C82A A111C A145G C169U U176A   middle bin
20        C82A A111U A120U A145U C150G C169G   bottom bin
21              C82A A111G A120G C169U U176A      top bin
22        C82G A111G A145C C150A C169A U176C   middle bin
23              C82G A111G C150A C169G U176C      top bin
24              C82G A111G C150A C169A U176G   middle bin
25       A111U A120C A145G C150G C169G U176C   middle bin
26                   A111U C150A C169G U176A   middle bin
27        C82A A111C A120U A145G C169U U176A   bottom bin
28             A111G A120G A145U C150G U176G   bottom bin
29                    C82A A120C C169A U176C      top bin
30                   A111G A120G A145G U176C      top bin
31                   A120U A145G C150U U176A      top bin
32             A111U A120G A145G C150U C169U      top bin
33  C82G A111U A120U A145C C150A C169U U176C   bottom bin
34                    C82G A111C A120C A145G      top bin
35  C82U A111G A120U A145G C150U C169G U176C   bottom bin
36              C82G A111C A120C A145U C150U      top bin
37        C82U A111G A120U C150A C169A U176G   bottom bin
38        C82A A111G A120U A145U C169G U176G   bottom bin
39             A111U A120G C150U C169U U176C      top bin
40                   A111U A145U C169U U176A      top bin
41        C82A A111G A120G C150G C169U U176G   middle bin
42        C82G A111G A145G C150A C169A U176A      top bin
43        C82G A111C A120G C150U C169G U176C   middle bin
44                                     A120U      top bin

Hey, just so you know, these numbers are from the RNAGym collection of RNA variant scans (doi:10.1093/molbev/msab373).
